System: rA3GR8/E259A (Macaca mulatta (rhesus macaque), UniProt M1GSK9 1-138+=AEAG+147-383, E259A;internal_change)
Test: EMSA
Metric name: Kd (nM)
// note: answer is a bare numeric in nM

Kd in this record for TTTTGATTTT (ssDNA) [GA-DNA 10 nt] : 473

New cases:
Reported Kd for TTTTAATTTT (ssDNA) [AA-DNA 10 nt] was 318
